- EXPERIMENT: Negative inotropic activity in guinea pig left atrium assessed as decrease in atrial tension at 50 uM relative to control
- Type: functional, Cavia porcellus, Cardiac atrium
- Design: scale not given: the % may be the effect or the level left
Activity reference
The answer is to be given in %; state only the numeric part.

Below: 6 compounds and their reported Activity.
>  <COMPOUND>
CS/C=C(/C)n1c(C(=O)c2ccc(Br)cc2)noc1=O

>  <MEAS VALUE>
95

$$$$
>  <COMPOUND>
C/C(=C/SCc1ccccc1)n1c(C(=O)c2ccc(Br)cc2)noc1=O

>  <MEAS VALUE>
80

$$$$
>  <COMPOUND>
CCS/C=C(/C)n1c(C(=O)c2ccc(Cl)cc2)noc1=O

>  <MEAS VALUE>
75

$$$$
>  <COMPOUND>
CC1=CSC(O)(c2ccc(Br)cc2)c2noc(=O)n21 (stereo not given)

>  <MEAS VALUE>
97

$$$$
>  <COMPOUND>
CS/C=C(/C)n1c(C(=O)c2ccc(Cl)cc2)noc1=O

>  <MEAS VALUE>
71

$$$$
>  <COMPOUND>
C/C(=C/S(C)(=O)=O)n1c(C(=O)c2ccc(Br)cc2)noc1=O

>  <MEAS VALUE>
73

$$$$

Qu. Suppose we examine the compound CCOC1(c2ccc(Br)cc2)SC=C(C)n2c1noc2=O (stereo not given) ; what Activity value has been reported?
Ans. 77

Qu. Similarly, C/C(=C/Sc1sc([N+](=O)[O-])cc1[N+](=O)[O-])n1c(C(=O)c2ccc(Cl)cc2)noc1=O ?
Ans. 67

Qu. Repeat for the following compound: C/C(=C/[S+](C)[O-])n1c(C(=O)c2ccc(Cl)cc2)noc1=O (stereo not given)
Ans. 71

Qu. Another compound to check: COc1ccc(C2(O)SC=C(C)n3c2noc3=O)cc1 (stereo not given)
Ans. 97

====

- STUDY SYSTEM: Voltage-gated L-type calcium channel (Rattus norvegicus, UniProt P22002+Q02485+P27732)
- EXPERIMENT: Displacement of [3H]diltiazem from L-type calcium channel in Sprague-Dawley rat cardiac myocytes by liquid scintillation counting
- Type: cell-based
QUANTITY MEASURED: Ki (nM)
Report as a plain number; the unit nM is understood.

Answered cases to consult:
>  <COMPOUND>
CS/C=C(/C)n1c(C(=O)c2ccc(Br)cc2)noc1=O

>  <Ki, nM>
490

$$$$
>  <COMPOUND>
C/C(=C/SS/C=C(/C)n1c(C(=O)c2ccc(Br)cc2)noc1=O)n1c(C(=O)c2ccc(Br)cc2)noc1=O

>  <Ki, nM>
200

$$$$
>  <COMPOUND>
C/C(=C/[S+](C)[O-])n1c(C(=O)c2ccc(Br)cc2)noc1=O (centres undefined)

>  <Ki, nM>
23680

$$$$

From here, focus on the item given below.
Qu. Requested read-out: Ki. Entry: CC1=CSC(O)(c2ccc(Br)cc2)c2noc(=O)n21 (centres undefined)
Ans. 290

====

- EXPERIMENT: Negative chronotropic activity in guinea pig spontaneously beating right atrium assessed as decrease in atrial rate at 100 uM relative to control
- Type: functional, Cavia porcellus, Cardiac atrium
- Parameters: scale not given: the % may be the effect or the level left
QUANTITY MEASURED: Activity (%)
Field format: number, assumed %, no unit text.

Consider the reported Activity for these compounds:
>  <COMPOUND>
C/C(=C/S(C)(=O)=O)n1c(C(=O)c2ccc(Cl)cc2)noc1=O

>  <Activity (%)>
7

$$$$
>  <COMPOUND>
C/C(=C/[S+](C)[O-])n1c(C(=O)c2ccc(Br)cc2)noc1=O (stereo not drawn)

>  <Activity (%)>
33

$$$$
>  <COMPOUND>
CCCCCCCCCS/C=C(/C)n1c(C(=O)c2ccc(Cl)cc2)noc1=O

>  <Activity (%)>
2

$$$$
>  <COMPOUND>
C/C(=C/SCC(C)C)n1c(C(=O)c2ccc(Cl)cc2)noc1=O

>  <Activity (%)>
5

$$$$
>  <COMPOUND>
C/C(=C/SCC(C)C)n1c(C(=O)c2ccc(Br)cc2)noc1=O

>  <Activity (%)>
16

$$$$

Qu. For the compound C/C(=C/[S+](C)[O-])n1c(C(=O)c2ccc(Cl)cc2)noc1=O (stereo not drawn) , what Activity is on record?
Ans. 4

Qu. Request: C/C(=C/SS/C=C(/C)n1c(C(=O)c2ccc(Cl)cc2)noc1=O)n1c(C(=O)c2ccc(Cl)cc2)noc1=O
Ans. 4

Qu. Please do the same for CCCCCCCCCS/C=C(/C)n1c(C(=O)c2ccc(Br)cc2)noc1=O as well.
Ans. 3

Qu. Moving on to the next compound: C/C(=C/[S][Ag])n1c(C(=O)c2ccc(Cl)cc2)noc1=O
Ans. 7

Qu. And for CCCS/C=C(/C)n1c(C(=O)c2ccc(Br)cc2)noc1=O ?
Ans. 10

====

- EXPERIMENT: Negative chronotropic activity in guinea pig spontaneously beating right atrium assessed as decrease in atrial rate at 100 uM relative to control
- Format: functional, Cavia porcellus, Cardiac atrium
- Design: scale not given: the % may be the effect or the level left
QUANTITY MEASURED: Activity (%)
Numeric only. Scale: %

// known answers, use as guide
>  <MOLECULE>
C/C(=C/SS/C=C(/C)n1c(C(=O)c2ccc(Br)cc2)noc1=O)n1c(C(=O)c2ccc(Br)cc2)noc1=O

>  <UNIT OF MEASURE>
%

>  <Activity>
9

$$$$
>  <MOLECULE>
CCS/C=C(/C)n1c(C(=O)c2ccc(Br)cc2)noc1=O

>  <UNIT OF MEASURE>
%

>  <Activity>
18

$$$$

Here is another compound to look at.
Qu. Param item = C/C(=C/SCc1ccccc1)n1c(C(=O)c2ccc(Cl)cc2)noc1=O ; retrieve measured Activity.
Ans. 5
